Biological target: Nav 1.5 (Homo sapiens (Human))
Sequence (Q14524 whole entry): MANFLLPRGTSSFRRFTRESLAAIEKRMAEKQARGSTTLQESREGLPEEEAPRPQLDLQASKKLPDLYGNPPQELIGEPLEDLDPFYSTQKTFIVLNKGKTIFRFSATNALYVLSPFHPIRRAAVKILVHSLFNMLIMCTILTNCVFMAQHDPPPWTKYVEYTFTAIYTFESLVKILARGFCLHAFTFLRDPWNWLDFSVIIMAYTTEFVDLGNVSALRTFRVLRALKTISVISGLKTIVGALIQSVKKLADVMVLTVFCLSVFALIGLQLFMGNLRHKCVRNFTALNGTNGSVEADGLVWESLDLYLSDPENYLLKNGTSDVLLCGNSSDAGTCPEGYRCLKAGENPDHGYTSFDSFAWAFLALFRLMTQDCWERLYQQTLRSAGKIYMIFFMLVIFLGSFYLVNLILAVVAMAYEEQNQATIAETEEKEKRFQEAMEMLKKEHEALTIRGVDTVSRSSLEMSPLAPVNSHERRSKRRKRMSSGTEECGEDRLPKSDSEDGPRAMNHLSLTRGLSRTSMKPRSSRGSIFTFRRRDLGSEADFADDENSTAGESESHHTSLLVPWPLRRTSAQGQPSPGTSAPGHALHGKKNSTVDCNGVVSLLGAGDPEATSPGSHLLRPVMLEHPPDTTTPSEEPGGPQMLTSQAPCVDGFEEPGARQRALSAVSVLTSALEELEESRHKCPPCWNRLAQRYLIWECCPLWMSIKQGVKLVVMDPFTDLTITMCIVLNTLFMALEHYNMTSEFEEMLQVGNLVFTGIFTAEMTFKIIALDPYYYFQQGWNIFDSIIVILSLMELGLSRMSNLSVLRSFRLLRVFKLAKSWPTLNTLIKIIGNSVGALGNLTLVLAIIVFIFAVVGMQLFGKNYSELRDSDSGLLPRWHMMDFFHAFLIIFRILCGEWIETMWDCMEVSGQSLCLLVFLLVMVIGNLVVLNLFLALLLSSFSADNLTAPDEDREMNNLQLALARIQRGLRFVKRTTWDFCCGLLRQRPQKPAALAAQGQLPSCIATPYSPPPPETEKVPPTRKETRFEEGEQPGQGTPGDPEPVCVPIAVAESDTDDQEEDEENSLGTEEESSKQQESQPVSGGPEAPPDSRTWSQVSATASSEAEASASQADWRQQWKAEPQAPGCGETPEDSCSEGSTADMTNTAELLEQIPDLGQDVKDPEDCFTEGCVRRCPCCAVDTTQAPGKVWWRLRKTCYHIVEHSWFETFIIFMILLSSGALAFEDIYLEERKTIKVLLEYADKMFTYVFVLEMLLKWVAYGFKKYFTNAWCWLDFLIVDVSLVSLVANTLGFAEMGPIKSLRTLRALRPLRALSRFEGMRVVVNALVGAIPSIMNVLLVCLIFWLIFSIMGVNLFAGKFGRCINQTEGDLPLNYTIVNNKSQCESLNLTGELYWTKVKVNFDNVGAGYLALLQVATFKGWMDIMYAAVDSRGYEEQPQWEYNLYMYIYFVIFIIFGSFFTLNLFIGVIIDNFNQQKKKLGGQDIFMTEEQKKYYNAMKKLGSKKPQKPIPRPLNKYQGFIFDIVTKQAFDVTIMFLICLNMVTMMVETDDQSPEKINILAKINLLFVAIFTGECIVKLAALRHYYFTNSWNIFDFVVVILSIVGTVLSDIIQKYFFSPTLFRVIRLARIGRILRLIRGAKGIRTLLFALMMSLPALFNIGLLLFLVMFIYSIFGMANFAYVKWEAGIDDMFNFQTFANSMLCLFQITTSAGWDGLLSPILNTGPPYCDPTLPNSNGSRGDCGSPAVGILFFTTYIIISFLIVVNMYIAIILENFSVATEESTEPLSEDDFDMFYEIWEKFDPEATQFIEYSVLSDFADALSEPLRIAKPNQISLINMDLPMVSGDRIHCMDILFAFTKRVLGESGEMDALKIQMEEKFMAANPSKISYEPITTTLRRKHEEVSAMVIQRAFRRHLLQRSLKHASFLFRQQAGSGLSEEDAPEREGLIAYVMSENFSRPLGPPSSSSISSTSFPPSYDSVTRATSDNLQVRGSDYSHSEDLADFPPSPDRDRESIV
Test: in-vitro Nav 1.5 PX data
Details: read-out: Nav 1.5 PX IC50; in-vitro PX
MEASUREMENT LABEL: IC50

Lab book: IC50 of COc1cc(-c2cc(F)cc(F)c2)c(Cl)cc1-c1nn(C)c(=O)c2cc(S(=O)(=O)Nc3ccon3)ccc12 noted as > 30 µM

Let us examine a further case.
Sure, the documented IC50 for N#CCOc1cc(-c2cccc(F)c2)ccc1-c1nccc2cc(S(=O)(=O)Nc3nncs3)ccc12 is > 10 µM

----------
Target: Nav 1.7 (Homo sapiens (Human))
Assay: in-vitro Nav 1.7 PX data
Assay type: cell-based
Details: PatchXpress (PX), in vitro
MEASUREMENT LABEL: pIC50
Expect pIC50 as a plain number equal to -log10 of the molar concentration.

Lookup result for COc1nc(OC2CCC(F)(F)CC2)ccc1-c1nccc2cc(S(=O)(=O)Nc3ccncn3)ccc12 ; measured pIC50: 6.14

Short answer for COc1cc(-c2ccccc2)ccc1-c1nccc2cc(S(=O)(=O)Nc3nncs3)ccc12 : pIC50 was 6.76

The measured pIC50 associated with COc1nc(OCC2CCC(F)(F)CC2)ccc1-c1nccc2cc(S(=O)(=O)Nc3ccncn3)ccc12 reads 6.34

New cases:
Data point: COc1nc(NCC(C)(C)C)ccc1-c1nccc2cc(S(=O)(=O)Nc3ccncn3)ccc12 ; pIC50 = 6.05

----------
Biological target: Nav 1.7 (Homo sapiens (Human))
Assay: in-vitro Nav 1.7 PX data
Type: cell-based
Conditions: in-vitro PX
MEASUREMENT LABEL: IC50 (µM)
Write the value in µM as a bare number.

Measured IC50 of COc1cc(-c2cccc(F)c2)c(Cl)cc1-c1n[nH]c(=O)c2cc(S(=O)(=O)Nc3ccon3)ccc12 [Example 232] : 0.126

response.value for COc1cc(-c2cccc(C)c2)c(C#N)cc1-c1nccc2cc(S(=O)(=O)Nc3nncs3)ccc12 [Example 217] (field: IC50) = 0.0223

The reported IC50 of the molecule COc1cc(-c2cc(F)cc(F)c2)c(C#N)cc1-c1ncnc2cc(S(=O)(=O)Nc3nncs3)ccc12 [Example 216] was 0.0456

Pending molecule:
Memo: COc1cc(-c2ccc(Cl)c(C)c2)c(Cl)cc1-c1ncnc2cc(S(=O)(=O)Nc3ccon3)ccc12 [Example 204] , reported IC50: 0.0218

----------
Examples of molecules with documented pIC50 follow.
Target: Nav 1.7 (Homo sapiens (Human), UniProt Q15858)
Sequence (Q15858 whole entry): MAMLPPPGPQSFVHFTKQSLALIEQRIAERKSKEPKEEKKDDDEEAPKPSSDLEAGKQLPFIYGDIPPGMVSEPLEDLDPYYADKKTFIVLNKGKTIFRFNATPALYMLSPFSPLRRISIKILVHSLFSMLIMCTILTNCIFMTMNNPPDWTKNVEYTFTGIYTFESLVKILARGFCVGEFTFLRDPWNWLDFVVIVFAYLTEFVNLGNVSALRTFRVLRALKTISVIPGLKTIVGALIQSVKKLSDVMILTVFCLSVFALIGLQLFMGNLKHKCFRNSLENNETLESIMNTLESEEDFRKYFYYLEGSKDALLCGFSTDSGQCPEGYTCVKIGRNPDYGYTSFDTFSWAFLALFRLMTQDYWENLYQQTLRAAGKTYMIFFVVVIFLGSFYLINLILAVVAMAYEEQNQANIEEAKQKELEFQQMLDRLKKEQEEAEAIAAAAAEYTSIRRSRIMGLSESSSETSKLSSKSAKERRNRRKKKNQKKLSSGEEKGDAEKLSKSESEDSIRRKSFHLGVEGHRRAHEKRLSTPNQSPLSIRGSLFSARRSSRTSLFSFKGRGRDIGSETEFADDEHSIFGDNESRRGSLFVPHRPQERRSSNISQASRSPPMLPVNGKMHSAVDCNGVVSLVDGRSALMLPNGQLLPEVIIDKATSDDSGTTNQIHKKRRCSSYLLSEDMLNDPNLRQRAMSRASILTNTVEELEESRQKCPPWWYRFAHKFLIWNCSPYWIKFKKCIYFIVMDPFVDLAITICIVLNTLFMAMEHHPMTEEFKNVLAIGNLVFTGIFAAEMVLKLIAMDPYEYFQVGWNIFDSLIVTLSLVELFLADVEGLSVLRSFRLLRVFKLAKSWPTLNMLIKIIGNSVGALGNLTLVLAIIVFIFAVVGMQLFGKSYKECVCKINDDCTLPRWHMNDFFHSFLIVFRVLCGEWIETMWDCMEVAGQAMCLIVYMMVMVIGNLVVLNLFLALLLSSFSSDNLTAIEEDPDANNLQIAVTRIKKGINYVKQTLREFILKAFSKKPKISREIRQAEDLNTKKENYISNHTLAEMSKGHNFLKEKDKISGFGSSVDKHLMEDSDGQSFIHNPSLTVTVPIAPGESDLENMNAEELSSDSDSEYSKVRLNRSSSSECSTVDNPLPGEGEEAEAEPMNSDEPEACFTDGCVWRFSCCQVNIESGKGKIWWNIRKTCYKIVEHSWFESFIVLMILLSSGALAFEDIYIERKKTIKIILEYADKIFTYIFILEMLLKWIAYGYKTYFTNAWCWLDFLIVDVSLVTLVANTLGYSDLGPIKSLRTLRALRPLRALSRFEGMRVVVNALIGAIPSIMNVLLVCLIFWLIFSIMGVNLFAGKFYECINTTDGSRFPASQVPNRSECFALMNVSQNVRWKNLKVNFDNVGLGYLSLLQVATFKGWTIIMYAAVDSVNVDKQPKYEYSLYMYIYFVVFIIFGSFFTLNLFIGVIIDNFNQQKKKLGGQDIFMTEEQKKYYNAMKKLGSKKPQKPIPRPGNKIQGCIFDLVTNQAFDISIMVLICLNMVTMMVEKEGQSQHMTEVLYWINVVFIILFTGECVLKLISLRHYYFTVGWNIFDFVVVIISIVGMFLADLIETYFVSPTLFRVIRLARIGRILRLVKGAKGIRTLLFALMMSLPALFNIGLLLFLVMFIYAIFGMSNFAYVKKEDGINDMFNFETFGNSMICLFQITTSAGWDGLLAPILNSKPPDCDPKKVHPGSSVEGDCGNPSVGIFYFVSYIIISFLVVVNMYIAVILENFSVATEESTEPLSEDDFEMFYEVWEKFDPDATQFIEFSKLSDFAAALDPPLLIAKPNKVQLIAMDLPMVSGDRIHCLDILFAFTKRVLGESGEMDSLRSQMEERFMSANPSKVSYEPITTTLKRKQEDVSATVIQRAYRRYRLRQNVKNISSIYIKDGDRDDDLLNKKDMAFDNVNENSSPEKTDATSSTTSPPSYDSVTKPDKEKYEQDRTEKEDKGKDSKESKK
Assay: Nav 1.7 in vitro PX assay (PatchXpress whole cell voltage clamp);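 also: holding potential set for 20 to 50% inactivation, sodium current evoked by a 20 ms step to −10 mV, peak current inhibition read after compound exposure, 3–5 cells per concentration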
Type: cell-based
Conditions: HEK 293 cells stably transfected with human Nav1.7; PatchXpress; partially inactivated state
Quick note: pIC50 means taking -log10 of the concentration in moles per liter.

Per the records, this molecule ( COc1cc(F)cc(-c2cc(OC)c(-c3nccc4cc(S(=O)(=O)Nc5ccon5)ccc34)cc2F)c1 ) has pIC50 equal to 7.40

Looking up COc1cc(-c2ccc(Cl)c(C)c2)c(F)cc1-c1cn(C)c(=O)c2cc(S(=O)(=O)Nc3ccon3)ccc12 , I found its pIC50 recorded as 7.29

# molecule COc1cc(-c2ccc3c(c2)CCC3)c(C)cc1-c1ncnc2cc(S(=O)(=O)Nc3ccon3)ccc12 ; its pIC50 = 6.77

Next:
Form field pIC50, entry CCc1cnc2cc(S(=O)(=O)Nc3ccon3)ccc2c1-c1cc(Cl)c(-c2cccc(F)c2)cc1OC (atropisomer, axis not shown; (M)) [Example 332] : 4.47

The molecule listed as CCc1cnc2cc(S(=O)(=O)Nc3ccon3)ccc2c1-c1cc(Cl)c(-c2cccc(F)c2)cc1OC (atropisomer, axis not shown; (P)) [Example 333] has a reported pIC50 of 6.23

Reported pIC50 of COc1cc(-c2cccc(F)c2)c(Cl)cc1-c1c(OC)cnc2cc(S(=O)(=O)Nc3ccon3)ccc12 (atropisomer, axis not shown; (M)) [Example 339] : 6.20

In plain terms, COc1cc(-c2cccc(F)c2)c(Cl)cc1-c1c(C)nnc2cc(S(=O)(=O)Nc3ccon3)ccc12 (atropisomer, axis not shown; (P)) [Example 442] has a documented pIC50 of 6.60
